From: patent US6608082B1

Assignment: determine reported pIC50 for the given compounds.
Target: MCR-4 (Homo sapiens)
Construct: expressed in transfected cells; host or cells: HEK 293
Sequence (P32245 whole entry): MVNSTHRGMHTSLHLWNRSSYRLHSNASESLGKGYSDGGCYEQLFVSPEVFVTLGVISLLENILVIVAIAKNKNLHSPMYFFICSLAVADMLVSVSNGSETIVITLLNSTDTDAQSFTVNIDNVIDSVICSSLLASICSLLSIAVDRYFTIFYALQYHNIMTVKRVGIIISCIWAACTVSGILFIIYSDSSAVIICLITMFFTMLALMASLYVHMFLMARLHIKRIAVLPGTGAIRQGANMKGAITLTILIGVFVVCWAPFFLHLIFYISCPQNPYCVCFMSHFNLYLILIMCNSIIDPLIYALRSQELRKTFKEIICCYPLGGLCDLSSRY
Assay: Melanocortin receptor binding assay, competition with 125I-HP 467, HEK 293 cells expressing hMCR-4
Conditions: inhibition of binding of 125I-HP 467, HEK 293 cells expressing MCR-4; read-out: MC-4 IC50
Procedure: All cell culture media and reagents were obtained from GibcoBRL (Gaithersburg Md.), except for COSMIC CALF SERUM (HyClone; Logan Utah). Cells were suspended in PBS, 10% COSMIC CALF SERUM and 1 mM CaCl2. […] To assay isoquinoline compounds, binding assays were performed in duplicate in a 96 well format. […] Cells were harvested on GF/B filter plates as described above and counted.
The meaning of pIC50 here: minus log10 of the concentration in molar units.

Exercise: Which pIC50 is listed for CCNc1ccc(C2C(CNCCc3ccccc3)c3ccccc3CN2CCCC(CN)NC)cc1 (stereo not shown) [TRG 2411-151] ?
Key: 5.75

Exercise: Item NCC(CCCCN1Cc2ccccc2C(CNCCc2ccccc2)C1c1cc(C(F)(F)F)cc(C(F)(F)F)c1)NCc1ccccc1 (stereo not shown) [TRG 2421-1] has what recorded pIC50?
Key: 5.75

Exercise: Would you kindly share the measured pIC50 for CCNc1ccc(C2C(CNCCc3ccccc3)c3ccccc3CN2CCCC(CN)NCC2CC2CNCc2ccccc2)cc1 (stereo not shown) [TRG 2420-6] ?
Key: 5.29

Exercise: What pIC50 value was documented for this compound, CCNc1ccc(C2C(CNCCc3ccccc3)c3ccccc3CN2CCCC(CN)NCCc2ccccc2)cc1 (stereo not shown) [TRG 2413-9] ?
Key: 5.87

Exercise: Which value of pIC50 has been reported for CCOc1ccc(CCNCC2c3ccccc3CN(CCCCC(CN)NCc3ccccc3)C2c2cccc(C(F)(F)F)c2)cc1 (stereo not shown) [TRG 2421-45] in the records?
Key: 5.56

Exercise: Can you share its pIC50? I mean this compound: CCNc1ccc(C2C(CN)c3ccccc3CN2CCCC(CN)NCC2CC2CN(CC)CC)cc1 (stereo not shown) [TRG 2420-27]
Key: 5.38

Exercise: Dear colleague, I am looking for the recorded pIC50 of the following compound: CCOc1ccc(C2C(CN)c3ccccc3CN2CCCC(CN)NCCC2CCCCC2)cc1 (stereo not shown) [TRG 2415-10]
Key: 5.75

Exercise: Can you look up the measured pIC50 of CCNc1ccc(C2C(CN)c3ccccc3CN2CCCC(CN)NCC2CC2CNC(C)C)cc1 (stereo not shown) [TRG 2420-25] for me?
Key: 5.32

Exercise: So what's the measured pIC50 for this one? CCNc1ccc(C2C(CN)c3ccccc3CN2CCCC(CN)NCCC2CCCCC2)cc1 (stereo not shown) [TRG 2411-186]
Key: 6.24

Exercise: Returns the measured pIC50 for the input compound. Input: CCNc1ccc(C2C(CNCCc3ccccc3)c3ccccc3CN2CCCC(CN)NCc2ccccc2CNC(C)C)cc1 (stereo not shown) [TRG 2420-13]
Key: 6.17

Exercise: What value of measured pIC50 is listed for CCNc1ccc(C2C(CNCCc3ccccc3)c3ccccc3CN2CCCC(CN)NCCCCNCc2ccccc2)cc1 (stereo not shown) [TRG 2419-3] ?
Key: 5.67

Exercise: # get_value(readout='pIC50', item= CCNc1ccc(C2C(CNCCc3ccccc3)c3ccccc3CN2CCCC(N)CN)cc1 (stereo not shown) [TRG 2411-150] )
Key: 5.34

Exercise: Name the recorded pIC50 for CCCCOc1ccc(C2C(CN)c3ccccc3CN2CCCCC(CN)NCC)cc1 (mixture of isomers) [TRG 2415-18] .
Key: 5.10

Exercise: Record request: pIC50 value, item Cc1ccc(CNC(CN)CCCCN2Cc3ccccc3C(CNCCc3ccc(O)cc3)C2c2cc(C(F)(F)F)cc(C(F)(F)F)c2)cc1 (stereo not shown) [TRG 2421-7]
Key: 5.34

Exercise: Give its pIC50 value. Item: CCc1ccc(C2C(CO)c3ccccc3CN2CCCC(CN)NCCC2CCCCC2)cc1 (stereo not shown) [TRG 2415-7]
Key: 5.67

Exercise: Would you mind telling me what pIC50 value was observed for NCC(CCCCN1Cc2ccccc2C(CNCCc2ccc(Cl)cc2)C1c1cc(C(F)(F)F)cc(C(F)(F)F)c1)NCc1ccccc1 (stereo not shown) [TRG 2421-31] ?
Key: 5.56

Exercise: Which pIC50 reading was recorded for the compound CCNc1ccc(C2C(CN)c3ccccc3CN2CCCC(CN)NCCCCNCc2ccccc2)cc1 (stereo not shown) [TRG 2419-6] ?
Key: 5.19

Exercise: Report pIC50 for CCNc1ccc(C2C(CNCCc3ccccc3)c3ccccc3CN2CCCC(CN)NCCCCCNCCc2ccccc2)cc1 (stereo not shown) [TRG 2420-4] please.
Key: 5.38

Exercise: Entry under review: CCNc1ccc(C2C(CNCCc3ccccc3)c3ccccc3CN2CCCC(CN)NCCOCCNC(C)C)cc1 (stereo not shown) [TRG 2420-9] . Reported pIC50?
Key: 5.49

Exercise: What does the record list as pIC50 for COc1cccc(CCNCC2c3ccccc3CN(CCCCC(CN)NCc3ccc(Br)cc3)C2c2cc(C(F)(F)F)cc(C(F)(F)F)c2)c1 (stereo not shown) [TRG 2421-38] ?
Key: 5.87

Exercise: Given the compound CCNc1ccc(C2C(CN)c3ccccc3CN2CCCC(CN)NCCCCNCCc2ccccc2)cc1 (stereo not shown) [TRG 2419-12] , what is its reported pIC50?
Key: 4.78

Exercise: If you can, please state the reported pIC50 value of CNC(CN)CCCN1Cc2ccccc2C(CNCCc2ccccc2)C1c1ccc([N+](=O)[O-])cc1 (stereo not shown) [TRG 2413-16] .
Key: 6.40

Exercise: Fill in: pIC50 of CCNc1ccc(C2C(CNCCc3ccccc3)c3ccccc3CN2CCCC(CN)NCCc2ccc(OC)cc2)cc1 (stereo not shown) [TRG 2411-157] is ___
Key: 6.17

Exercise: What value of pIC50 has been recorded for this entry: CCCCNc1ccc(C2C(CNCCc3ccccc3)c3ccccc3CN2CCCC(CN)NCC)cc1 (stereo not shown) [TRG 2411-190]
Key: 6.68

Exercise: Request the reported pIC50 associated with COc1ccc(CNC(CN)CCCCN2Cc3ccccc3C(CNCCc3ccc(OC)c(OC)c3)C2c2cc(C(F)(F)F)cc(C(F)(F)F)c2)cc1 (stereo not shown) [TRG 2421-19]
Key: 6.28

====

Molecular target: MCR-4 (Homo sapiens)
Construct: expressed in transfected cells; host or cells: HEK 293
Experiment: Melanocortin receptor binding assay, competition with 125I-HP 467, HEK 293 cells expressing hMCR-4
Settings: TRG 2408 and TRG 2409 libraries; inhibition of 125I-HP 467 binding; read-out: MC-4 IC50
measurement.kind: IC50 (µM)
Dear colleague, please return just the value in µM, with no unit written.

Exercise: Which IC50 value is on record for CNC(CN)CCCCN1Cc2ccccc2C(CNC2CCCCC2)C1c1ccc(-c2ccccc2)cc1 (stereo not drawn) [TRG 2408-50] ?
Key: 13.3

Exercise: I am curious: what IC50 value has been reported for CCNc1ccc(C2C(CNC3CCCCC3)c3ccccc3CN2CCCC[C@@H](CN)NCCc2ccccc2)cc1 (stereo partly drawn) [TRG 2408-6] ?
Key: 7.16

Exercise: What value of IC50 has been recorded for this entry: CCNc1ccc(C2C(CNC3CCCCC3)c3ccccc3CN2CCCCC(CN)NC)cc1 (stereo not drawn) [TRG 2408-30]
Key: 45.6

====

For each of the molecules below, state its % Disp. of 125I-HP 467 (second of duplicate).
Target: MCR-1 (Homo sapiens)
Construct: expressed in transfected cells; host or cells: HEK 293
Sequence (Q01726 whole entry): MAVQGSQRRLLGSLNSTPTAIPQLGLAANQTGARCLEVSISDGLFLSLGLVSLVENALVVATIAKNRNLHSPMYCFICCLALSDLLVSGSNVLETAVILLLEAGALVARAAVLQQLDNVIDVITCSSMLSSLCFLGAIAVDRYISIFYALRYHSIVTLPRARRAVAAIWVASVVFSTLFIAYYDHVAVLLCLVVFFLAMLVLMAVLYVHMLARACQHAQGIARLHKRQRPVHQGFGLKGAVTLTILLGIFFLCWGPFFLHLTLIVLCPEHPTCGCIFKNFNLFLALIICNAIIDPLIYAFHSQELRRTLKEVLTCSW
Experiment: Melanocortin receptor binding assay, competition with 125I-HP 467, HEK 293 cells expressing hMCR-1
Settings: 10 μM isoquinoline compound, HEK 293 cells expressing MCR-1, duplicate 2
Method: All cell culture media and reagents were obtained from GibcoBRL (Gaithersburg Md.), except for COSMIC CALF SERUM (HyClone; Logan Utah). Cells were suspended in PBS, 10% COSMIC CALF SERUM and 1 mM CaCl2. […] To assay isoquinoline compounds, binding assays were performed in duplicate in a 96 well format. […] Cells were harvested on GF/B filter plates as described above and counted.
Give your result in % as a bare value.

Exercise: State the recorded % Disp. of 125I-HP 467 (second of duplicate) for this entry: CNC(CN)CCCCN1Cc2ccccc2C(CNC2CCCCC2)C1c1ccc(Br)o1 (centres unmarked) [TRG 2405-269]
Key: 57.7

Exercise: Fill blank: measured % Disp. of 125I-HP 467 (second of duplicate) of the molecule CNC(CN)CCCCN1Cc2ccccc2C(CNC2CCCCC2)C1c1cccc(C)c1 (centres unmarked) [TRG 2405-227] is ____.
Key: 74.6

Exercise: What does the record list as % Disp. of 125I-HP 467 (second of duplicate) for CNC(CN)CCCCN1Cc2ccccc2C(CNC2CCCCC2)C1c1ccc([N+](=O)[O-])c(O)c1 (mixture of isomers) [TRG 2405-250] ?
Key: 50.5

Exercise: Which % Disp. of 125I-HP 467 (second of duplicate) is listed for CNC(CN)CCCCN1Cc2ccccc2C(CNC2CCCCC2)C1c1ccc2ccccc2n1 (centres unmarked) [TRG 2405-202] ?
Key: 53.2

Exercise: // returns reported % Disp. of 125I-HP 467 (second of duplicate) for input CNC(CN)CCCCN1Cc2ccccc2C(CNC2CCCCC2)C1c1ccc(-c2ccccc2)cc1 (centres unmarked) [TRG 2405-241]
Key: 88.8
